- tgt: serine acetyltransferase
- experiment-notes: Serine acetyltransferase enzyme activity test with and without L-cysteine (inhibitor constant Ki, specific activity)
- Format: biochemical, E. coli
- experimental-parameters: Table 1a; inhibitor L-cysteine; 1 mM L-serine, 0.1 mM acetyl-CoA
pKi: −log10 of the molar value.

- molecule: "cysEV: triple mutant Val237, Ser238, Ile256 (protein, UniProt P0A9D4 1-273, looked up, variant A237V G238S M256I) Serine acetyltransferase: MSCEELEIVWNNIKAEARTLADCEPMLASFYHATLLKHENLGSALSYMLANKLSSPIMPAIAIREVVEEAYAADPEMIASAACDIQAVRTRDPAVDKYSTPLLYLKGFHALQAYRIGHWLWNQGRRALAIFLQNQVSVTFQVDIHPAAKIGRGIMLDHATGIVVGETAVIENDVSILQSVTLGGTGKSGGDRHPKIREGVMIGAGAKILGNIEVGRGAKIGAGSVVLQPVPPHTTAVSVPARIVGKPDSDKPSMDIDQHFNGINHTFEYGDGI"
  pKi: 5.00
- molecule: "cysEIII: feedback-resistant serine acetyltransferase allele, Gly165->Asp165 (protein, UniProt P0A9D4 1-273, looked up, variant G165D) Serine acetyltransferase: MSCEELEIVWNNIKAEARTLADCEPMLASFYHATLLKHENLGSALSYMLANKLSSPIMPAIAIREVVEEAYAADPEMIASAACDIQAVRTRDPAVDKYSTPLLYLKGFHALQAYRIGHWLWNQGRRALAIFLQNQVSVTFQVDIHPAAKIGRGIMLDHATGIVVDETAVIENDVSILQSVTLGGTGKSGGDRHPKIREGVMIGAGAKILGNIEVGRGAKIGAGSVVLQPVPPHTTAAGVPARIVGKPDSDKPSMDMDQHFNGINHTFEYGDGI"
  pKi: 5.00
- molecule: "cysEXI: double mutant Thr167->Ala167, Gly245->Ser245 (protein, UniProt P0A9D4 1-273, looked up, variant T167A G245S) Serine acetyltransferase: MSCEELEIVWNNIKAEARTLADCEPMLASFYHATLLKHENLGSALSYMLANKLSSPIMPAIAIREVVEEAYAADPEMIASAACDIQAVRTRDPAVDKYSTPLLYLKGFHALQAYRIGHWLWNQGRRALAIFLQNQVSVTFQVDIHPAAKIGRGIMLDHATGIVVGEAAVIENDVSILQSVTLGGTGKSGGDRHPKIREGVMIGAGAKILGNIEVGRGAKIGAGSVVLQPVPPHTTAAGVPARIVSKPDSDKPSMDMDQHFNGINHTFEYGDGI"
  pKi: 3.15
- molecule: "cysEX: mutant Thr167->Ala167 (protein, UniProt P0A9D4 1-273, looked up, variant T167A) Serine acetyltransferase: MSCEELEIVWNNIKAEARTLADCEPMLASFYHATLLKHENLGSALSYMLANKLSSPIMPAIAIREVVEEAYAADPEMIASAACDIQAVRTRDPAVDKYSTPLLYLKGFHALQAYRIGHWLWNQGRRALAIFLQNQVSVTFQVDIHPAAKIGRGIMLDHATGIVVGEAAVIENDVSILQSVTLGGTGKSGGDRHPKIREGVMIGAGAKILGNIEVGRGAKIGAGSVVLQPVPPHTTAAGVPARIVGKPDSDKPSMDMDQHFNGINHTFEYGDGI"
  pKi: 4.30
- molecule: "cysEXXIII: triple mutant Ala167, Val237, Ser238 (protein, UniProt P0A9D4 1-273, looked up, variant T167A A237V G238S) Serine acetyltransferase: MSCEELEIVWNNIKAEARTLADCEPMLASFYHATLLKHENLGSALSYMLANKLSSPIMPAIAIREVVEEAYAADPEMIASAACDIQAVRTRDPAVDKYSTPLLYLKGFHALQAYRIGHWLWNQGRRALAIFLQNQVSVTFQVDIHPAAKIGRGIMLDHATGIVVGEAAVIENDVSILQSVTLGGTGKSGGDRHPKIREGVMIGAGAKILGNIEVGRGAKIGAGSVVLQPVPPHTTAVSVPARIVGKPDSDKPSMDMDQHFNGINHTFEYGDGI"
  pKi: 2.64
- molecule: "cysEXII: triple mutant Lys97->Gln97, Gly238->Ser238, Phe267->Leu267 (protein, UniProt P0A9D4 1-273, looked up, variant K97Q G238S F267L) Serine acetyltransferase: MSCEELEIVWNNIKAEARTLADCEPMLASFYHATLLKHENLGSALSYMLANKLSSPIMPAIAIREVVEEAYAADPEMIASAACDIQAVRTRDPAVDQYSTPLLYLKGFHALQAYRIGHWLWNQGRRALAIFLQNQVSVTFQVDIHPAAKIGRGIMLDHATGIVVGETAVIENDVSILQSVTLGGTGKSGGDRHPKIREGVMIGAGAKILGNIEVGRGAKIGAGSVVLQPVPPHTTAASVPARIVGKPDSDKPSMDMDQHFNGINHTLEYGDGI"
  pKi: 4.40
- molecule: "cysEIV: double mutant Ala237->Val237, Gly238->Ser238 (protein, UniProt P0A9D4 1-273, looked up, variant A237V G238S) Serine acetyltransferase: MSCEELEIVWNNIKAEARTLADCEPMLASFYHATLLKHENLGSALSYMLANKLSSPIMPAIAIREVVEEAYAADPEMIASAACDIQAVRTRDPAVDKYSTPLLYLKGFHALQAYRIGHWLWNQGRRALAIFLQNQVSVTFQVDIHPAAKIGRGIMLDHATGIVVGETAVIENDVSILQSVTLGGTGKSGGDRHPKIREGVMIGAGAKILGNIEVGRGAKIGAGSVVLQPVPPHTTAVSVPARIVGKPDSDKPSMDMDQHFNGINHTFEYGDGI"
  pKi: 4.40
- molecule: "cysEII: feedback-resistant serine acetyltransferase allele, Gly238->Ser238 (protein, UniProt P0A9D4 1-273, looked up, variant G238S) Serine acetyltransferase: MSCEELEIVWNNIKAEARTLADCEPMLASFYHATLLKHENLGSALSYMLANKLSSPIMPAIAIREVVEEAYAADPEMIASAACDIQAVRTRDPAVDKYSTPLLYLKGFHALQAYRIGHWLWNQGRRALAIFLQNQVSVTFQVDIHPAAKIGRGIMLDHATGIVVGETAVIENDVSILQSVTLGGTGKSGGDRHPKIREGVMIGAGAKILGNIEVGRGAKIGAGSVVLQPVPPHTTAASVPARIVGKPDSDKPSMDMDQHFNGINHTFEYGDGI"
  pKi: 5.00
- molecule: "cysEVI: double mutant Ser238, Ile256 (protein, UniProt P0A9D4 1-273, looked up, variant G238S M256I) Serine acetyltransferase: MSCEELEIVWNNIKAEARTLADCEPMLASFYHATLLKHENLGSALSYMLANKLSSPIMPAIAIREVVEEAYAADPEMIASAACDIQAVRTRDPAVDKYSTPLLYLKGFHALQAYRIGHWLWNQGRRALAIFLQNQVSVTFQVDIHPAAKIGRGIMLDHATGIVVGETAVIENDVSILQSVTLGGTGKSGGDRHPKIREGVMIGAGAKILGNIEVGRGAKIGAGSVVLQPVPPHTTAASVPARIVGKPDSDKPSMDIDQHFNGINHTFEYGDGI"
  pKi: 5.00
